- System: morningglory (Ipomoea spp.)
- Protocol Details: Test A postemergence
- Format: in vivo
- Details: 500 g ai/ha, 0 to 100 scale, 0 no effect, 100 complete control, approx. 10 days
Measured Parameter: Plant response rating, Morningglory

Here's what some known entries look like.
# Compound, Data Value
data = [
    ("COCCn1c(-c2cc(F)cc(F)c2)c(Cl)nc(C(=O)C2=C(O)CCCC2=O)c1=O", 100),
    ("COCCn1c(-c2cc(F)cc(F)c2)cnc(C(=O)C2=C(O)CCCC2=O)c1=O", 90),
]

-- ask Query (compound): COCCn1c(-c2cccc(F)c2)c(Cl)nc(C(=O)C2=C(O)CCCC2=O)c1=O [Compound 4] ; field requested: Plant response rating, Morningglory
-- reply 100

-- ask Query (compound): CCCCn1c(-c2ccccc2)cnc(C(=O)C2=C(O)CCCC2=O)c1=O ; field requested: Plant response rating, Morningglory
-- reply 100

-- ask Query (compound): O=C1CCCC(O)=C1C(=O)c1nc(Cl)c(-c2cccc(F)c2)n(C2CCCCC2)c1=O ; field requested: Plant response rating, Morningglory
-- reply 90

-- ask Query (compound): COCCn1c(-c2cccc(F)c2)c(Cl)nc(C(=O)C2=C(O)CCCC2=O)c1=O [Compound 7] ; field requested: Plant response rating, Morningglory
-- reply 90

====

- System: giant foxtail (Setaria faberii)
- Protocol Details: Test A preemergence
- Format: in vivo
- Details: 500 g ai/ha, 0 to 100 scale, 0 no effect, 100 complete control, approx. 10 days
Measured Parameter: Plant response rating, Foxtail, Giant

Here's what some known entries look like.
# Compound, Measured Parameter, Data Value
measured = [
    ("O=C1CCCC(O)=C1C(=O)c1nc(Cl)c(-c2cccc(F)c2)n(C2CCCCC2)c1=O [Compound 2]", "Plant response rating, Foxtail, Giant", 30),
    ("COCCn1c(-c2cc(F)cc(F)c2)c(Cl)nc(C(=O)C2=C(O)CCCC2=O)c1=O [Compound 6]", "Plant response rating, Foxtail, Giant", 70),
    ("CCCCn1c(-c2ccccc2)cnc(C(=O)C2=C(O)CCCC2=O)c1=O [Compound 1]", "Plant response rating, Foxtail, Giant", 30),
    ("COCCn1c(-c2cc(F)cc(F)c2)cnc(C(=O)C2=C(O)CCCC2=O)c1=O [Compound 5]", "Plant response rating, Foxtail, Giant", 80),
    ("COCCn1c(-c2cccc(F)c2)c(Cl)nc(C(=O)C2=C(O)CCCC2=O)c1=O [Compound 4]", "Plant response rating, Foxtail, Giant", 30),
]

-- ask Query (compound): COCCn1c(-c2cccc(F)c2)c(Cl)nc(C(=O)C2=C(O)CCCC2=O)c1=O [Compound 7] ; field requested: Plant response rating, Foxtail, Giant
-- reply 0

====

- Test system: large crabgrass (Digitaria sanguinalis)
- Protocol Details: Test A preemergence
- Assay type: in vivo
- Details: 125 g ai/ha, 0 to 100 scale, 0 no effect, 100 complete control, approx. 10 days
Plant response rating, Crabgrass, Large less than 80 is rule met; Plant response rating, Crabgrass, Large greater than or equal to 80 is rule not met.

Study these solved cases before continuing.
# Compound, Group
measured = [
    ("COCCCn1c(-c2cc(F)cc(F)c2)c(Cl)nc(C(=O)C2=C(O)CCCC2=O)c1=O [Compound 8]", "rule met"),
    ("COCCn1c(-c2cc(F)cc(F)c2)cnc(C(=O)C2=C(O)CCCC2=O)c1=O [Compound 5]", "rule not met"),
    ("O=C1CCCC(O)=C1C(=O)c1nc(Cl)c(-c2cccc(F)c2)n(C2CCCCC2)c1=O [Compound 2]", "rule met"),
    ("COCCn1c(-c2cc(F)cc(F)c2)c(Cl)nc(C(=O)C2=C(O)CCCC2=O)c1=O [Compound 6]", "rule not met"),
    ("CCCCn1c(-c2ccccc2)cnc(C(=O)C2=C(O)CCCC2=O)c1=O [Compound 1]", "rule met"),
]

// next entry
-- ask A record lists COCCn1c(-c2cccc(F)c2)c(Cl)nc(C(=O)C2=C(O)CCCC2=O)c1=O [Compound 7] . Is its Plant response rating, Crabgrass, Large below 80?
-- reply rule met
